Values compiled from patent US20210388087A1.

Molecular target: Human CD3eg linker (human)
Sequence (chain, as listed by the source limits assumed): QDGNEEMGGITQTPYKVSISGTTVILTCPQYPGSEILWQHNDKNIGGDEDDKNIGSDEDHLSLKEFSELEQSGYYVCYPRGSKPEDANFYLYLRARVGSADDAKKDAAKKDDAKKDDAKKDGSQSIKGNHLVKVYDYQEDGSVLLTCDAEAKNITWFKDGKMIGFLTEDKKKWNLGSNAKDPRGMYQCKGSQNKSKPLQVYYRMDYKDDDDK
Assay: SPR; fold vs parent H183/L072
The following binders are listed with their measured fold change of affinity values.
Note: unit fold is implicit; provide only the numeric part.

>  <binder>
H183/L072 VL K50F (antibody, name in Kabat numbering, V domains shown) VH: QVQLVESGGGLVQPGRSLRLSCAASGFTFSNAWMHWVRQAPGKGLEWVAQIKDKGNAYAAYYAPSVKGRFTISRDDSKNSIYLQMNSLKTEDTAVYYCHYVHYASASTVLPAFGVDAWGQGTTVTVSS VL: DIVMTQSPLSLPVTPGEPASISCQASQELVHMNRNTYLHWYQQKPGQAPRLLIYFVSNRFPGVPDRFSGSGSGTDFTLKISRVEAEDVGVYYCAQGTSVPFTFGQGTKLEIK

>  <fold change of affinity [fold]>
0

$$$$
>  <binder>
H183/L072 VL A89R (antibody, name in Kabat numbering, V domains shown) VH: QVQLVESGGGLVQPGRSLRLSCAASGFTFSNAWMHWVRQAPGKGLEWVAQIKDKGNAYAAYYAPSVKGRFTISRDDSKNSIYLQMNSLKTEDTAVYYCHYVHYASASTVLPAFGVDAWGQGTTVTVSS VL: DIVMTQSPLSLPVTPGEPASISCQASQELVHMNRNTYLHWYQQKPGQAPRLLIYKVSNRFPGVPDRFSGSGSGTDFTLKISRVEAEDVGVYYCRQGTSVPFTFGQGTKLEIK

>  <fold change of affinity [fold]>
0

$$$$

Then there is this binder:
Q: Quick check: fold change of affinity of H183/L072 VL F96A (antibody, name in Kabat numbering, V domains shown) VH: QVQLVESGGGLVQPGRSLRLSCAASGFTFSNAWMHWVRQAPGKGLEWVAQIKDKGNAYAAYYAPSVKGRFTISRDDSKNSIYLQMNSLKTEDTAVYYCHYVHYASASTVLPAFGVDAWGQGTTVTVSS VL: DIVMTQSPLSLPVTPGEPASISCQASQELVHMNRNTYLHWYQQKPGQAPRLLIYKVSNRFPGVPDRFSGSGSGTDFTLKISRVEAEDVGVYYCAQGTSVPATFGQGTKLEIK ?
A: 0
